Examples of molecules with documented SEAP-His: absorbance at 450 nm, percentage with respect to hEphA4-SEAP-His as 100% follow.
- study_target: SEAP-His (Homo sapiens, UniProt P05187)
- Sequence (P05187 23-511 limits assumed): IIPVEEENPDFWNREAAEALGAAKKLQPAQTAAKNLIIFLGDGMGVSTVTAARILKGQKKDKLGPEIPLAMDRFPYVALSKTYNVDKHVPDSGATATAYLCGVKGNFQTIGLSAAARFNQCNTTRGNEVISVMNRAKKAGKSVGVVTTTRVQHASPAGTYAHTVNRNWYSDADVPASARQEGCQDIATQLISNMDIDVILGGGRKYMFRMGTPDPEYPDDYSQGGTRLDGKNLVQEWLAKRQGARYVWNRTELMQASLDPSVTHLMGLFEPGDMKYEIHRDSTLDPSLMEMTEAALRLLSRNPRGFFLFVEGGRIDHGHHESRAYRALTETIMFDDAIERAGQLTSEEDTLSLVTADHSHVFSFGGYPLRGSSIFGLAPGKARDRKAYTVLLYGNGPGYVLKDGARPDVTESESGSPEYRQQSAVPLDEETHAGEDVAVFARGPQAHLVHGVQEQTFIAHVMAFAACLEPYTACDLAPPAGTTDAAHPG
- test_name: Selectivity ELISA of humanized antibodies for human Eph receptor
- Assay type: binding
- condition: coated protein 1 nM
Your answer should be a plain number; it is taken to be in %.

Use the examples below as a reference point.
INSERT INTO measurements (molecule, unit_of_measure, measured_result) VALUES
  ('81 (antibody, V domains shown, constant regions without entry; synthetic humanized antibody light chain variable region sequence; synthetic humanized antibody heavy chain variable region sequence) VL: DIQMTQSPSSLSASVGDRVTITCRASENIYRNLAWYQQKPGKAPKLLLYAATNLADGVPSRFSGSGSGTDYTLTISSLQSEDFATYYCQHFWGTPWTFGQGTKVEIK VH: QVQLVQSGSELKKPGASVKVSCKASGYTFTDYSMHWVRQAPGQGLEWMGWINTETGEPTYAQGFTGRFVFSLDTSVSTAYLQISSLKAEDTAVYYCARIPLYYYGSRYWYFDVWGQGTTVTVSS', '%', 5.0),
  ('156 (antibody, V domains shown, synthetic humanized antibody heavy chain variable region sequence; synthetic humanized antibody light chain variable region sequence) VH: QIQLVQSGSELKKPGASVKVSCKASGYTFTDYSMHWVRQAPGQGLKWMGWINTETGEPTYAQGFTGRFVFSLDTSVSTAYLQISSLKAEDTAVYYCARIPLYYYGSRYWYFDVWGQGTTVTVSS VL: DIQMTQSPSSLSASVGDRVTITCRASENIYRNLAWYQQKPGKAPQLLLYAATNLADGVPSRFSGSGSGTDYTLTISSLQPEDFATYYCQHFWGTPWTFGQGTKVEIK', '%', 5.4),
  ('135 (antibody, V domains shown, synthetic humanized antibody heavy chain variable region sequence; synthetic humanized antibody light chain variable region sequence) VH: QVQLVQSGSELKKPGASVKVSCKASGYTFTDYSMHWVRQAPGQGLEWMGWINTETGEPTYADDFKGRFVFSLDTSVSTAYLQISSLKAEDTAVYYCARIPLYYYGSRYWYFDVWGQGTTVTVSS VL: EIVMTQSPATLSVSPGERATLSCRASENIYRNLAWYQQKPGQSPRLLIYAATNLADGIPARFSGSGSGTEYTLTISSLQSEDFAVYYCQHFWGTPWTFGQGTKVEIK', '%', 5.3);

Now consider the entry below.
Quote SEAP-His: absorbance at 450 nm, percentage with respect to hEphA4-SEAP-His as 100% reported for 67 (antibody, V domains shown, synthetic humanized antibody heavy chain variable region sequence; synthetic humanized antibody light chain variable region sequence) VH: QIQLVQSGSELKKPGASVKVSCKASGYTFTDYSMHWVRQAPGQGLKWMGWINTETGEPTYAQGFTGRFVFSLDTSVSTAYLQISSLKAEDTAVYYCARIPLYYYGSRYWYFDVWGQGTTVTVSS VL: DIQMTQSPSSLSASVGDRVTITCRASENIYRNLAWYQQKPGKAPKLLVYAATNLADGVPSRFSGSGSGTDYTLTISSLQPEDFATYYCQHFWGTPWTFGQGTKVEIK please.
5.0
